Source of measurements: patent US10894807B2

target: human PSMA (Homo sapiens (Human))
Sequence (Q04609 whole entry): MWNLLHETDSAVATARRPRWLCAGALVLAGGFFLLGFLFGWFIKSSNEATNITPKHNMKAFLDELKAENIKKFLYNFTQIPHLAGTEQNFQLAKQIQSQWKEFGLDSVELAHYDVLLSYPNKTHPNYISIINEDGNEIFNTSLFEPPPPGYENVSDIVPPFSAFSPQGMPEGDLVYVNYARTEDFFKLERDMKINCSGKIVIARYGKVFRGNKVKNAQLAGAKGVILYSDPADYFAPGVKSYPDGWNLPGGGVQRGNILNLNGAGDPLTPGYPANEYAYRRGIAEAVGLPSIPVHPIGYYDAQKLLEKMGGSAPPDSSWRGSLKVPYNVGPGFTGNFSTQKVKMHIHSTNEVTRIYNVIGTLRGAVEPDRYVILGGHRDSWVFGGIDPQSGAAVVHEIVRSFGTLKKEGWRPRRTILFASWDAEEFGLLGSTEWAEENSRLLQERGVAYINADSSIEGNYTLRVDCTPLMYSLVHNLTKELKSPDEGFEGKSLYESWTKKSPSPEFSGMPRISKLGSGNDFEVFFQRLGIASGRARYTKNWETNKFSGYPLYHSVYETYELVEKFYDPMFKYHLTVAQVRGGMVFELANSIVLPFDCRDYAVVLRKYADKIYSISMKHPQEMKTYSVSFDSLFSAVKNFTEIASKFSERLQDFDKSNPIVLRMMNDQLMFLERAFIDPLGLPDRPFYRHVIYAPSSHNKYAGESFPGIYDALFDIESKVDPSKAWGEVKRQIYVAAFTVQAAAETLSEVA
Classes (Ki): bucket A = under 2 nM, bucket B = from 2 nM up to 40 nM, bucket C = 40 nM and over

Some entries whose results are on file:
Molecule: O=C(O)CC[C@@H](C(=O)O)N(O)C(=O)N[C@@H](CCCCNC(=O)c1ccc(-n2cc(CCCF)nn2)cc1)C(=O)O
Category label: bucket C
--
Molecule: O=C(O)CCC(NC(=O)N[C@@H](CCCCNC(=O)CCC(CCC(=O)NCCCC[C@H](NC(=O)NC(CCC(=O)O)C(=O)O)C(=O)O)(CCC(=O)NCCCC[C@H](NC(=O)NC(CCC(=O)O)C(=O)O)C(=O)O)NC(=O)c1ccc(-n2cc(CCCF)nn2)cc1)C(=O)O)C(=O)O (stereo partly drawn)
Category label: bucket A
--
Molecule: O=C(O)CC[C@H](NC(=O)N(O)[C@@H](CCCCNC(=O)c1ccc(F)cc1)C(=O)O)C(=O)O
Category label: bucket C

Looking at O=C(O)CC[C@H](NC(=O)NC(Cc1ccc(NC(=O)N2CCN(C(=O)c3cc(NC(=O)Cn4cc(CCCF)nn4)cc(C(=O)N4CCN(C(=O)Nc5ccc(CC(NC(=O)N[C@@H](CCC(=O)O)C(=O)O)C(=O)O)cc5)CC4)c3)CC2)cc1)C(=O)O)C(=O)O (stereo in doubt) , which class would you pick?
bucket B
